- TARGET_SYSTEM: equilibrative nucleoside transporter 4 (hENT4) (Homo sapiens, UniProt Q7RTT9)
- Construct: gene SLC29A4
- Sequence (Q7RTT9 1-530): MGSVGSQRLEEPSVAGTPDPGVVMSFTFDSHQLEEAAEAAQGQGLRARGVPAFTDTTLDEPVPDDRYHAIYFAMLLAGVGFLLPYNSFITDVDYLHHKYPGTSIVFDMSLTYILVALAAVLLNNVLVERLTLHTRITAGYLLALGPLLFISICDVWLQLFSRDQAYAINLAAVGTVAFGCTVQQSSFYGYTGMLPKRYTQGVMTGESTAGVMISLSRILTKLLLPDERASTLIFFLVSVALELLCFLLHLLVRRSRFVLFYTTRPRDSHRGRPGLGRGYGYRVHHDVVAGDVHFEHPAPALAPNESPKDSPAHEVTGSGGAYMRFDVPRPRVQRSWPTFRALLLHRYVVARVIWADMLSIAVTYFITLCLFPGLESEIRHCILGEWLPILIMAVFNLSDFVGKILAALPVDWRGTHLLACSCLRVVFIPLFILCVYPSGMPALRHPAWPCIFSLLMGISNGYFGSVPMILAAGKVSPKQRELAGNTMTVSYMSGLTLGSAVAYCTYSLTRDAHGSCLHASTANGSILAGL
- MEASUREMENT_DESCRIPTION: inhibition of [3H]2-chloroadenosine uptake at pH […] in PK15-hENT4 cells
- Type: cell-based
- MEASUREMENT_CONTEXT: read-out: IC50
pIC50: −log10 of the molar value.
ENDPOINT_LABEL: pIC50

What the record says about `CCN1/C(=C/c2ccc3ccccc3[n+]2CC)C=Cc2ccccc21` : pIC50 is ~5.64

* * *

- TARGET_SYSTEM: equilibrative nucleoside transporter 4 (hENT4) (Homo sapiens)
- Construct: gene SLC29A4
- MEASUREMENT_DESCRIPTION: inhibition of [3H]2-chloroadenosine uptake at pH […] in PK15-hENT4 cells
- Type: cell-based
ENDPOINT_LABEL: pIC50
Expect pIC50 as a plain number equal to -log10 of the molar concentration.

Consider `C[n+]1ccc(-c2ccccc2)cc1` . Its measured pIC50 is 3.66
